test: soluble on expression in E. coli; label from the status in PepcDB or PDB records
observed_property: soluble on expression in E. coli

residue_string=AMARVGVLGAKGKVGATMVRAVAAADDLTLSAELDAGDPLSLLTDGNTEVVIDFTHPDVVMGNLEFLIDNGIHAVVGTTGFTAERFQQVESWLVAKPNTSVLIAPNFAIGAVLSMHFAKQAARFFDSAEVIELHHPHKADAPSGTAARTAKLIAEARKGLPPNPDATSTSLPGARGADVDGIPVHAVRLAGLVAHQEVLFGTEGETLTIRHDSLDRTSFVPGVLLAVRRIAERPGLTVGLEPLLDLH experimental_value=soluble
residue_string=MNIRNARPEDLMNMQHCNLLCLPENYQMKYYFYHGLSWPQLSYIAEDENGKIVGYVLAKMEEDPDDVPHGHITSLAVKRSHRRLGLAQKLMDQASRAMIENFNAKYVSLHVRKSNRAALHLYSNTLNFQISEVEPKYYADGEDAYAMKRDLTQMADEPASGPGSSCLLSGDLGPVSFHPLPSGLLAAAEAAPGAEGKGQAHGSGGLGEQSGEQRQRAFELRRGLS experimental_value=soluble

---

test: soluble on expression in E. coli; label from the status in PepcDB or PDB records
observed_property: soluble on expression in E. coli

residue_string=MGSDKIHHHHHHMDKFLYVAMSGAKQNMSALAVRANNLANANTDGFKSDLTQARSMQAFGEGLPSRVFAMTEIATSDFKAGALKTTGRDLDIAVKGDGWIAVQAPDGSEAYTRSGGLKFDNTGLLLNSRNNPVMGNSGPIVLPLPIDKLQISPDGIISIRPQGATAEVIEEVARIKLVNPDNSQMMRGEDGLFRLTSGDVAAKDPSVQVESGAIEASNVNPVEEMVALISIQRQYEMQVKMMKTAEETDQASSSLMRIG experimental_value="not soluble"
residue_string=AWQAAVASNEPFGEAQLAQRIRRYLPEQGQLFVGNSLVVRLIDALAQLPAGYPVYSNRGASGIDGLIATAAGVQRASARPTLAIVGDLSALYDLNSLALLRQASAPLVLIVVNNNGGQIFSMLPTPQDERRQFYLMPQDVDFSHAAVMFGLAYHRPDDWPSLDEALAGAWRRAGATVIELAVNETDG experimental_value="not soluble"

---

assay: soluble on expression in E. coli; label from the status in PepcDB or PDB records
observed_property: soluble on expression in E. coli

residue_string=MDLWLLANDESCLRHQAFWHSWQGPLVERQQSNNITLTDVLEGVHAYLQGHLDDFEIQEAFVTKELPLKLAQLRERWERYVVLNAELAARGRGGFERNRRDD observed_property="soluble on expression in E. coli" experimental_value=soluble
residue_string=MGSDKIHHHHHHMANNFDLHAALTLATKPGPFVTMTLPVTGIPATDRTQFNSLLKQGKEQLEKVAPDRTWSAYAESFTPFEHGPLTNGSATGLLIMAGASDSYHYWLHTPVAATVTVTYQPNVLPILQAQDKTSDYDILLLGRDAFDLAQVRNGRPEMVNLPVDAPVTLEKALGSELRDRGRWQRSAGEHTQYSGTGSLDTAREADQRNYFMMVDAYVSQHYSNVDQVPLILVANASDQGNFRKFSQNAYLDHVVRVVQGPNLAAANQTLAALALSITEQRHQQATQIRRDAYAKVRQNQQVVQDLGPLATAAVQGQVAKLWLRDDASQPGHLTEKGTVMTATALSRQNNLYNDLALQVSRLGGQVEVLPADAMPTSNPVAAQLRLRETVAH observed_property="soluble on expression in E. coli" experimental_value="not soluble"
residue_string=GMVSRSPFESFQWKSDIFNCESTDIDNFYLLLEQEMTRLGMVEKNLGEVGKYKVSLYQSPAAKSGLPSLLISAGFHGEESAGPWGLLHFLSEASADLFERVNLSLLPLVNPTGFSRGHRFNKYGENPNRGFVFENGKPKANEHTSVEGKLLLDHAQLLIAACRDGILTCHEDVLSREAYVYSFEPSQVPGRFSLDLRDTLGGYFPIAVDGEIDACPVKDGLIFNHFDTSFEACLVRSGARVGACTETPALQNFDQRVLANSAAMTHFLALCAPLCD observed_property="soluble on expression in E. coli" experimental_value=soluble
residue_string=GMAQNIYDQPDFFAGYSQLGRSIEGLDGAAEWPALRAMLPEVGGLRIVDLGCGFGWFCRWAHEHGASYVLGLDLSEKMLARARAAGPDTGITYERADLDKLHLPQDSFDLAYSSLALHYVEDVARLFRTVHQALSPGGHFVFSTEHPIYMAPARPGWAIDAEGRRTWPIDRYLVEGPRKTDWLAKGVVKHHRTVGTTLNALIRSGFAIEHVEEFCPTDAQITARPELAEELDRPMFLLVSARR observed_property="soluble on expression in E. coli" experimental_value=soluble
residue_string=MGSDKIHHHHHHMKLTCMQEDLKRGLAAVGHAVAGKSTLPVLANILLATDEGRLKLTATNLEVGINRWISATITRDGAVAVPAKLLTDVVGGLPNDKVTLSLDQKTQTLRVECGRFVSNIKGVDADEFPSLPTVSAQTPLVSLPAEVWQEAIDQVAFAAATDESRPILTGVLVRTRDQQVTLVAADGFRLAMRTIQLSAPVAHAVDCLIPARTLSELARIIGDTDAEVAMVYTPGGSHVLFHTENIEVVSRLIEGRFPDFERIIPQQYLTRMVLDNSELAKAVKLASFFAGSSQNVVKLKIEPASELAPGRVVISANAAELGDNTSELDGSVTGEGGVIALNVRFLADAIAAVHSNQIAFEMQSAQSPAVFKPVGQDGYIHIVMPMSMR observed_property="soluble on expression in E. coli" experimental_value="not soluble"
residue_string=MGSDKIHHHHHHMMAVLHRSSDIIAATICRILIPQFYSDNTVPINGNYSCIFLLSYMFPLDSPLLADLYKKYRSRLISRIARLTGCRETAADLAQDAYMRLLDQTGVACPSNPAAYLFRIGRNLAIDHQRRPDFRQHDETSFEEELPSSFSGLDQQAVYRQECEQLWTAIMELPRPVSRALVLSVIEGVSQAAIAEELGVTERTVRRYISKGMAHCQRRLRNPLPPARYDR observed_property="soluble on expression in E. coli" experimental_value="not soluble"
residue_string=MSTDAFYSTAFPTIPGTPNLLGYTAYSPQSIFNDSRPASSVNNTPSTSFNSSIHSRNRSIAMLHSISHILSNDDSLGSTTESSTPSTPEIHPSNAPAKKTIPLVLISDTDEECDKKSRKRRIRSKSSKKSRGIRKSRKHEASDYRKKIMLGTFEGRKIVLKLMK observed_property="soluble on expression in E. coli" experimental_value="not soluble"
residue_string=MSCVQQQRRSTGLRIAERLNKYITLPNRHSFTVDSKDVFQRGQVLSYIRSKAPFLLEHISEAKERLITVTSRGLMIIYENDDHGLVIDLRSARNVLCTADRSKKQRHFRCHIKIRMQRGNVHLFVGHNDVHKWTCAIMRAAGKCLPSTEPRDDGSLNVAMMTAVEDSGIFEEMSSTSSASYDYDEDDEVDEVKPTAIEQIPLPHVSVRSLRQKLEKELVLKPKEQVLAEQQHKANCDEPSFVSEIFCTPRAVFSDETVVLLEPTNARERREYEAQADRENQWWTRSLRC observed_property="soluble on expression in E. coli" experimental_value="not soluble"
residue_string=MADLPISLLQTLAYKQPLGRNSRIVHFTDGALFPVVAFGDNHSTSELYIAVRGDHRDLMSPDVRDSYALTGDDHKVWGATHHTYYVEGAPKKPLKFNVKTRTDLTILPVADVFWRADGSADVDVVWNDMPAVAGQSSSIALALASSLPFVPKAAYTGCLSGTNVQPVQFGNLKARAAHKIGLPLVGMTQDGGEDTRICTLDDAADHAFDSMESTVTR observed_property="soluble on expression in E. coli" experimental_value=soluble
residue_string=MIPGSTSGISFSRILSRQTSHQDATQHTDAQQAEIQQAAEDSSPGAEVQKFVQSTDEMSAALAQFRNRRDYEKKSSNLSNSFERVLEDEALPKAKQILKLISVHGGALEDFLRQARSLFPDPSDLVLVLRELLRRKDLEEIVRKKLESLLKHVEEQTDPKTLKAGINCALKARLFGKTLSLKPGLLRASYRQFIQSESHEVEIYSDWIASYGYQRRLVVLDFIEGSLLTDIDANDASCSRLEFGQLLRRLTQLKMLRSADLLFVSTLLSYSFTKAFNAEESSWLLLMLSLLQQPHEVDSLLADIIGLNALLLSHKEHASFLQIFYQVCKAIPSSLFYEEYWQEELLMALRSMTDIAYKHEMAEQRRTIEKLS observed_property="soluble on expression in E. coli" experimental_value="not soluble"
residue_string=MQGLESLTYYTENYPPLNFAKEDGKPAGIAVDLLLEAAAAVNVTLNLDQIFVQPWPRSYRSALLKQDGVLFSTTRTTHRENLFNWVGPIADIKVVVLARKSSQIKVNDPIELGNYRIGVIRDDIGEQQLLQLEHHHHHH observed_property="soluble on expression in E. coli" experimental_value="not soluble"
residue_string=MSLTVIIKSMETPEEIEGKSLVHWQTWRESYDDLLPAEFQDTMTLERCRFFSQKYPENTLIAMDGVKVVGFISYGNFRDETIQAGEIIALYVLKDYYGKGIAQKLMKAALTALNHFSEIFLWVLKDNKRAIAFYQKMGFTFDGQEKILELGKPIKEKRMVFYSKEGHHHHHH observed_property="soluble on expression in E. coli" experimental_value=soluble
